Source listed as ChEMBL document CHEMBL1201862.

Study System: Ataxin-2 (Homo sapiens) (UniProt Q99700)
Sequence (Q99700 whole entry): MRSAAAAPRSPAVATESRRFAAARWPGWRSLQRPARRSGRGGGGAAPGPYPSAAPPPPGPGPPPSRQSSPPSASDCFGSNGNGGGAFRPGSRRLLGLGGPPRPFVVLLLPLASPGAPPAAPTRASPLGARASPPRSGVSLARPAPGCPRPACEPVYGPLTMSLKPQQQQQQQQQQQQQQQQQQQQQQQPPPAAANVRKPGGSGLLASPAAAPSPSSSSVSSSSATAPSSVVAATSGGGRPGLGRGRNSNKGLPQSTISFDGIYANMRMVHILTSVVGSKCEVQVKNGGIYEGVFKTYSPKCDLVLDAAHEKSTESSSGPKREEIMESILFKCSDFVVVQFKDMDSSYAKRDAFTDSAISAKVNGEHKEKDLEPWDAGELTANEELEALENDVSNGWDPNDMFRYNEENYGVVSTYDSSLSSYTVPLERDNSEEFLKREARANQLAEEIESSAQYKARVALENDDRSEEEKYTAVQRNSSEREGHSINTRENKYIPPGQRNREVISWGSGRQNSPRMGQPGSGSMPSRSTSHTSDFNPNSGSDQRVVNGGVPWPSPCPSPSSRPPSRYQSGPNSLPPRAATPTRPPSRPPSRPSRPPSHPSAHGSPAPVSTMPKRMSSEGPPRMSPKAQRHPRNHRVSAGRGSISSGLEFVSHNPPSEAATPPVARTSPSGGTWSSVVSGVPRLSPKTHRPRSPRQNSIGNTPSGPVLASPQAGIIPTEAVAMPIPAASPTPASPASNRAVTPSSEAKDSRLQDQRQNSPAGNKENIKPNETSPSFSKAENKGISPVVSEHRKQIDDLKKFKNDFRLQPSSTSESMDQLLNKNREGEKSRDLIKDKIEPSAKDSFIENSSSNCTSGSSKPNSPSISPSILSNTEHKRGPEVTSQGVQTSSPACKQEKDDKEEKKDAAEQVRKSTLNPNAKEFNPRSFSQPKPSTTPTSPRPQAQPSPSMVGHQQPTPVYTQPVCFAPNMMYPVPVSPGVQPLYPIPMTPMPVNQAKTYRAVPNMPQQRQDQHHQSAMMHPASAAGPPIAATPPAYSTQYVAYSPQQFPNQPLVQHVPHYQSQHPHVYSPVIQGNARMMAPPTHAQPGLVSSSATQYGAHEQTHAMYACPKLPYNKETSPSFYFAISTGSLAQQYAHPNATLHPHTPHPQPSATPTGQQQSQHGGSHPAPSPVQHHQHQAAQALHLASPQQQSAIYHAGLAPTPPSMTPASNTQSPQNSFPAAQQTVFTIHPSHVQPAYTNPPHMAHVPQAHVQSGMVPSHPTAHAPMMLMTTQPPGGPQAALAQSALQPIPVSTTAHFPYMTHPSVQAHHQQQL
Measurement Protocol: qHTS for Inhibitors of ATXN expression.
Type: functional
Out of some 400,000 compounds screened, about 2,100 (0.53%) were called active. Not shown: some 14% with an inconclusive outcome. No rule for the calls is given here. This excerpt belongs to a sample that is enriched for actives.
Hi there, use one of these labels in your reply, thanks! YES for active, NO for inactive

Some solved cases for reference:
| Molecule | Label Class |
| --- | --- |
| CSc1ccccc1NC(=O)CN(C)C(=O)CNc1ccc(C(F)(F)F)cc1[N+](=O)[O-] | NO |
| CCCCn1c(SCCN2CCCCC2)nc2c1c(=O)n(C)c(=O)n2C | NO |
| Cc1c(CC(=O)N2CCN(C(=O)C3COc4ccccc4O3)CC2)c(=O)oc2c(C)c(O)ccc12 (stereo not drawn) | NO |
| CCc1cc2c(COC(=O)c3cccc(S(C)(=O)=O)c3)cc(=O)oc2cc1O | NO |
| C=CCOc1c(Br)cc(C2C3=C(CCCC3=O)N(C)C3=C2C(=O)CCC3)cc1OCC | NO |

Task: Each molecule tested received a call. Report the one for `CCOc1cc(CNCCc2ccc(S(N)(=O)=O)cc2)cc(Cl)c1OCc1ccccc1` .
Result: YES

Task: Each molecule tested received a call. Report the one for `C/C(=N\NC(=O)COc1ccc([N+](=O)[O-])cc1)c1ccco1` .
Result: NO

Task: Each molecule tested received a call. Report the one for `O=C(N/N=C/c1cccc2cccnc12)[C@H]1C[C@@H]1c1ccccc1` .
Result: NO

Task: Each molecule tested received a call. Report the one for `O=C1OCCN1C(=O)[C@H]1[C@H](c2ccc(Cl)cc2)C(c2ccccc2)=NN1c1ccccc1` .
Result: NO

Task: Each molecule tested received a call. Report the one for `O=C(CN(c1cccc(C(F)(F)F)c1)S(=O)(=O)c1ccc(Cl)c([N+](=O)[O-])c1)NCc1ccccc1Cl` .
Result: YES

Task: Each molecule tested received a call. Report the one for `Cc1nc(COc2ccccc2Cl)sc1-c1ccnc(N)n1` .
Result: NO

Task: Each molecule tested received a call. Report the one for `COc1ccc(-c2cc(-c3cccs3)nc3sc(C#N)c(N)c23)cc1` .
Result: NO
